- study target: Mas-related G-protein coupled receptor member X1 (Homo sapiens) (UniProt Q96LB2)
- Sequence (Q96LB2 whole entry, looked up): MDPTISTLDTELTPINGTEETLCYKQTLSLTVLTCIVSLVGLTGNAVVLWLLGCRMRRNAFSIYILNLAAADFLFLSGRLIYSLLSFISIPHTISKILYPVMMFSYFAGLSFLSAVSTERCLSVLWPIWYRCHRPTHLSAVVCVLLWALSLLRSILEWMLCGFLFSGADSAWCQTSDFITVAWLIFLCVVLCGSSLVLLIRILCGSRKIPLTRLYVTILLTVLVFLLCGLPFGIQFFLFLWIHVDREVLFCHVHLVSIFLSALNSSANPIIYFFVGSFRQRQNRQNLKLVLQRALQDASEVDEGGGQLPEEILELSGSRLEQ
- assay overview: positive allosteric modulators of MrgX1, primary screen, HEK293 cells, Fluo-4 calcium flux (AID 588675);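 also: compound read alongside a low EC10 to EC30 dose of BAM8-22 agonist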
- particulars: MrgX1-HEK293, Fluo-4 calcium flux, FDSS, at 10 µM
The campaign covered roughly 310,000 compounds. About 1,900 (0.61%) were called active.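 The calls were made as follows: active = plate-corrected calcium response at least 3 library SD above typical, normal starting fluorescence, not activating the receptor alone; inactive = the rest.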 What follows is part of a selection rich in actives, with near analogues and random picks from the rest.
Mark one answer only. Choices: yes = active, no = inactive

Prompt: Test call, this compound: CC(=O)Nc1ccc(S(=O)(=O)N2CCN(C(=O)c3ccccc3F)CC2)cc1
Completion: no

Prompt: What do you have for CCOC(=O)c1cccc(NC(=O)C2CCN(c3ncnc4c3nc3n4CCCCC3)CC2)c1 ?
Completion: no

Prompt: What do you get for C=C1c2c(Cl)ccc(O)c2C(O)=C2C(=O)[C@]3(O)C(O)=C(C(N)=O)C(=O)[C@@H](N(C)C)[C@@H]3[C@@H](O)C12 (stereo not given in full) ?
Completion: no

Prompt: And for COC(=O)c1c(NC(=O)CCN2CCOCC2)sc2c1CCCC2 ?
Completion: no

Prompt: How about Cc1ccc(-n2ccc(=O)c(C(=O)O)n2)cc1 ?
Completion: no

Prompt: Next record, please: CCCCOP(=O)(c1ccc(N(C)C)cc1)C(O)c1cc(OC)ccc1OC (stereo not given)
Completion: no

Prompt: Same read-out for Cc1ccc(N2CC(C(=O)Nc3cc(Cl)ccc3-n3cncn3)CC2=O)cc1 (stereo not given) ?
Completion: no

Prompt: Then COc1ccc(-c2cc(C(=O)Nc3ccccc3O)c3ccccc3n2)cc1 ?
Completion: no

Prompt: Okay, and CC(C)(C)Oc1ncc(Br)c(OC(C)(C)C)n1 ?
Completion: no

Prompt: Could you do the same for N/C(=N\OC(=O)CCn1cccc(C(F)(F)F)c1=O)c1ccc(OC(F)(F)F)cc1 , please?
Completion: no

Prompt: One more compound: COC(=O)c1c(NC(=O)CSc2nncs2)sc2c1CCCCC2
Completion: no

Prompt: Here is the next compound: Cc1ccc(/C=C/C(=O)O)cc1S(=O)(=O)N1CCC(Cc2ccccc2)CC1
Completion: no

Prompt: Query NC(=O)[C@H]1CC2(CC(c3cccc(NC(=O)[C@H]4CCC(=O)N4)c3)=NO2)CN1C(=O)c1ccccc1C(=O)c1ccccc1 (stereo not given in full) next
Completion: no

Prompt: What about this compound? CCc1ccc(N(CC(=O)Nc2sc3c(c2C(=O)OC)CCCC3)S(C)(=O)=O)cc1
Completion: yes

Prompt: Repeat for the following compound: COc1ccc(NC(=O)c2cc(-c3ccc(C)o3)nc3ccccc23)cc1
Completion: yes

Prompt: Here is the next compound: O=C(NC1CC1)C1CCCN(C(=O)NC2CCCCC2)C1 (stereo not given)
Completion: no

Prompt: Try the compound Cc1ccc(SCC(=O)c2cc(C)c(OC(=S)N(C)C)c(C)c2)cc1
Completion: no

Prompt: For O=C1NC2(CCCCCC2)C(=O)N1CCS(=O)(=O)Oc1ccccc1 then?
Completion: no

Prompt: Same thing, different compound: O=C(Oc1ccc(Br)cc1C(=S)N1CCOCC1)c1cccc([N+](=O)[O-])c1
Completion: no

Prompt: And the next one, Fc1ccc(COc2ccc(-c3nnco3)cc2)cc1 ?
Completion: no
